Some molecules, each annotated with its measured melting point.

Field request: melting point | item: CC=C1CCC2C3CCC4CC(O)C(OCC)CC4(C)C3C(N(C)C)CC12C (stereo not given)
63 to 78 °C

###

assay_endpoint: melting point

Study these solved cases before continuing.
> print(dat)
                                   compound       result
1  CCOc1cccc2cc(C(=O)C34CC5CC(CC(C5)C3)C4)oc12  84 to 86 °C
2              CCOC(=O)c1cc(C)nc2c(O)cccc12      71.8 °C

Field request: melting point | item: CC1CN(Cc2ccccc2)CC1=NO (centres undefined)
85 to 94 °C

What would you report for CCn1cc(C(=O)O)c(=O)c2cc(F)c(N3CCCC(O)C3)c(F)c21 (centres undefined) ?
232 to 234 °C

What would you report for "O=C(Nc1ccc2cc(CN3CCCCC3)ccc2c1)c1ccc(-c2ccc(F)cc2)nc1" ?
218 to 219 °C

What would you report for "CCOC(=O)CCCCCSc1nnc(S)s1" ?
79 to 80 °C

What would you report for "CC(C)Nc1nc(C(=O)O)cn1C" ?
247 °C

What would you report for CCCC(NS(=O)(=O)c1ccc(Cl)cc1)C(=S)Nc1ccc(CC(=O)O)cc1 (racemic) ?
170 to 177 °C

###

assay_endpoint: melting point

Study these solved cases before continuing.
> print(dat)
                                    molecule         result
 1  CC(C)(C)OC(=O)N1CCN(C(=O)C2CCCCN2C(=O)OCc2ccccc2)CC1 (stereo unspecified)         102 °C
 2  N#Cc1cccc2c1NC(=O)C21COc2cc3c(cc21)OCO3 (stereo unspecified)  205 to 207 °C
 3                 O=C(O)CCn1cnc2c(Cl)ncnc21  163 to 165 °C
 4  CCCN1C(=O)CC2CCC(C)C3CCC4(C)OOC23C1O4 (single isomer, unassigned; (-))  125 to 126 °C
 5  Cc1c(-c2ccc(F)cc2)n(Cc2ccc(OCCBr)cc2)c2ccc(OCc3ccccc3)cc12  114 to 116 °C
 6  COc1cc(C(=O)Nc2c(Cl)cc3c(Br)n[nH]c3c2C(=O)NC2(C3CC3)CC2)n(-c2ncccc2Cl)n1  190 to 194 °C
 7               c1cncc(-c2cc3ccccc3[nH]2)c1  176 to 177 °C
 8                 COCCOc1cc(C)c(O)c2ccccc12  100 to 101 °C
 9  CCOC(=O)C1C(=O)N(CC)c2cc3cc(C)oc3cc21 (stereo unspecified)    82 to 90 °C
10  CC(C#CC1CCC1)N(O)C(N)=O (stereo unspecified)  144 to 145 °C

Field request: melting point | item: "Cc1c(N)c(C(C)C)cc(Cc2cc(C(C)C)c(N)c(C)c2Cl)c1Cl"
118 to 120 °C

What would you report for CCOC(=O)CCC1(c2c[nH]cn2)Cc2ccccc2C1=O (stereo unspecified) ?
162 to 165 °C

What would you report for "COc1cc(C=CC(=O)Nc2cnc3ccc(C(C)C)cc3c2-c2ccccc2Cl)cc(OC)c1OC(C)=O" ?
138 °C

What would you report for Nc1nc(NC2CCCCC2)nc2c1ncn2C1C=CCCC1 (stereo unspecified) ?
108 to 111 °C

What would you report for "O=c1c2ccccc2n(Cc2ccccc2)c2cc(Cl)ccc12" ?
134 to 136 °C

What would you report for O=C(O)C1Sc2ccccc2-c2ccccc21 (stereo unspecified) ?
156 to 159 °C

What would you report for CCCC(SCC(=O)O)c1cc2c(cc1C)OCO2 (stereo unspecified) ?
77.5 to 78 °C
